B1: RSPH3 (parent)
chain: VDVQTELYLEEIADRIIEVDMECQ

Variants of: B1
Assay: protein stability index of a GFP-peptide fusion (GPS, HEK-293T) (PSI 1-6); higher = more stable;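 further: lentivirally expressed fusions sorted by FACS into six bins by GFP to DsRed ratio, PSI derived from sequencing read proportions per bin multiplied by bin number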
Details: c terminus: a fixed tail appended
For each record, write down the corresponding protein stability index.
Answer as a number with no unit attached.

QUERY: Look at this variant and give its reported protein stability index. L7P
RESULT: 3.07

QUERY: What does the data say about its protein stability index? Entry: E18N
RESULT: 2.7

QUERY: Query (variant): E22T ; field requested: protein stability index
RESULT: 2.17

QUERY: Need protein stability index of V1Y , thanks.
RESULT: 1.94

QUERY: Please give the measured protein stability index for this variant: E22F
RESULT: 1.9

QUERY: Which protein stability index value is on record for D2P ?
RESULT: 3.08

QUERY: So what does the record say about protein stability index for L7I ?
RESULT: 2.1

QUERY: # input variant: E11H ; wanted: its protein stability index
RESULT: 2.23

QUERY: Reported protein stability index, variant D2A : ____
RESULT: 1.63

QUERY: // query protein stability index value for entry A13I
RESULT: 2.22
